target: T1, human CD8A-Fc (in house) (human, UniProt P01732 22-182, limits assumed); assay: SPR (ProteOn), captured hCD8A-Fc
T1 construct: captured by goat anti-human Fc on the ProteOn chip; also called hCD8A-Fc; recombinant human CD8 alpha; not shown: linker/tag and Fc of human IgG1
T1 sequence (P01732 22-182 limits assumed): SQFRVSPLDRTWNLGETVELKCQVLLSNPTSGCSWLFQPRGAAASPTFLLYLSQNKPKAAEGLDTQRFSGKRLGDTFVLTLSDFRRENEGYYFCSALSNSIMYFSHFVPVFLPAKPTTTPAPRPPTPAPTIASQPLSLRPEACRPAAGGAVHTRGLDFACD
recordedEndpoint: koff (s⁻¹)
Please state the figure in s⁻¹; there is no need to write the unit.

# binder, resultUnits, koff
measured = [
    ("P283ER9P1365_B6 (designed binder, FN3 domain) LPAPKNLVVSRVTEDSARLSWTAPDAAFDSFGIGYAEPVVTGEAISLSVPGSERSYDLTGLKPGTEYWVVIIGVKGGINSYPLGAIFTT", "s⁻¹", 0.000288),
    ("P283DR9P1364_E7 (designed binder, FN3 domain) LPAPKNLVVSRVTEDSARLSWTAPDAAFDSFNIAYPEWPVRGEAIVLTVPGSERSYDLTGLKPGTEYWVIIYGVKGGDRSNPLSAIFTT", "s⁻¹", 0.00243),
    ("P283FR9P1366_D12 (designed binder, FN3 domain) LPAPKNLVVSRVTEDSARLSWTAPDAAFDSFDIAYPEWPLGGEAIVLTVPGSERSYDLTGLKPGTEYWVIILGVKGGDQSWPLSAIFTT", "s⁻¹", 0.00176),
    ("P283FR9P1366_C2 (designed binder, FN3 domain) LPAPKNLVVSRVTEDSARLSWTAPDAAFDSFKISYPEWPPEGEAIVLTVPGSERSYDLTGLKPGTEYAVFIWCVKGGEHSWPLSAIFTT", "s⁻¹", 0.000491),
    ("P283GR7P1367_C9 (designed binder, FN3 domain) LPAPKNLVVSRVTEDSARLSWTAPDAAFDSFLIGYPEWPLGGEAIVLTVPGSERSYDLTGLKPGTEYWVIIYGVKGGEYSDPLSAIFTT", "s⁻¹", 0.00221),
    ("P283GR7P1367_A11 (designed binder, FN3 domain) LPAPKNLVVSRVTEDSARLSWTAPDAAFDSFDIAYPEWPTDGEAIVLTVPGSERSYDLTGLKPGTEYFVIIYGVKGGSYSEPLSAIFTT", "s⁻¹", 0.000635),
    ("P283FR9P1366_D6 (designed binder, FN3 domain) LPAPKNLVVSRVTEDSARLSWTAPDAAFDSFNIFYPELVFPGEAIVLTVPGSERSYDLTGLKPGTEYWVNISGVKGGEHSWPLSAIFTT", "s⁻¹", 0.000509),
    ("P283FR9P1366_E11 (designed binder, FN3 domain) LPAPKNLVVSRVTEDSARLSWTAPDAAFDSFDIAYPEWPVPGEAIVLTVPGSERSYDLTGLKPGTEYWVIIKGVKGGNISWPLSAIFTT", "s⁻¹", 0.00141),
]

Quick one: koff of P283DR9P1364_G10 (designed binder, FN3 domain) LPAPKNLVVSRVTEDSARLSWTAPDAAFDSFSIAYPEWPGSGEAIVLTVPGSERSYDLTGLKPGTEYFVVIFGVKGGSQSWPLSAIFTT ?
0.00253
